Biological target: activated ERK2 (Homo sapiens)
Sequence (P28482 whole entry): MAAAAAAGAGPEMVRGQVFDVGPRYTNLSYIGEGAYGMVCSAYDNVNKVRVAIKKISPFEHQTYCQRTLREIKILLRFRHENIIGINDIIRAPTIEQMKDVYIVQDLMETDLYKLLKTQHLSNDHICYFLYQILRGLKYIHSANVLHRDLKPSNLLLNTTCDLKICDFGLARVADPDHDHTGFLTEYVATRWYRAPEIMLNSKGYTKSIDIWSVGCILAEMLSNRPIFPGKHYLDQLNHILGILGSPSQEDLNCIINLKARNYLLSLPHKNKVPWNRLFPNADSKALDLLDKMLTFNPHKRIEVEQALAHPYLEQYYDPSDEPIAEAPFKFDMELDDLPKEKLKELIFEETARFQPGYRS
Test: ERK2 inhibition assay, spectrophotometric coupled-enzyme assay
Settings: activated ERK2 10 nM, 65 μM ATP, 200 μM erktide peptide, 30° C., pH 7.5
Description: In this assay, a fixed concentration of activated ERK2 (10 nM) was incubated with various concentrations of a compound of the present invention in DMSO (2.5%) for 10 min. at 30° C. in 0.1 M HEPES buffer (pH 7.5), containing 10 mM MgCl2, 2.5 mM phosphoenolpyruvate, 200 μM NADH, 150 μg/ml pyruvate kinase, 50 μg/ml lactate dehydrogenase, and 200 μM erktide peptide.
pKi: −log10 of the molar value.
# pKi values compiled below

Known results for compounds:
compound="Cc1cnc(Nc2ccc([N+](=O)[O-])cc2Cl)nc1-c1c[nH]c(C(=O)NC(CO)c2ccccc2)c1 (stereo not shown) [Compound I-4]" system_tested="activated ERK2 (Homo sapiens)" assay_metric=pKi reading="> 7.00"
compound="Cc1cnc(Nc2ccc(Cl)cc2Cl)nc1-c1c[nH]c(C(=O)NC(CO)c2ccccc2)c1 (stereo not shown) [Compound I-3]" system_tested="activated ERK2 (Homo sapiens)" assay_metric=pKi reading="> 7.00"
compound="Cc1cnc(Nc2c(Cl)cccc2Cl)nc1-c1c[nH]c(C(=O)NC(CO)c2ccccc2)c1 (stereo not shown) [Compound I-8]" system_tested="activated ERK2 (Homo sapiens)" assay_metric=pKi reading="< 7.00"

Quick check: pKi of Cc1cnc(Nc2c(C)cccc2Cl)nc1-c1c[nH]c(C(=O)NC(CO)c2ccccc2)c1 (stereo not shown) [Compound I-9] ?
< 7.00
